The origin of these recorded values is ChEMBL document CHEMBL1127070.

Biological target: GABA-A receptor; anion channel
Test: In vitro inhibition of [3H]flunitrazepam displacement from GABA-A receptor
measure name: Ki

>  <compound>
C[C@]12N[C@H](Cc3ccccc31)c1ccccc12 [DIZOCILPINE]

>  <Ki>
> 100 µM

$$$$

Now for a further compound.
Measured Ki for this entry C[C@]12N[C@H](Cc3ccc(N=C=S)cc31)c1ccccc12 (stereo in doubt; (+)-8a) on GABA-A receptor; anion channel: > 100 µM

====

Target: Sodium-dependent dopamine transporter (Rattus norvegicus) (UniProt P23977)
Sequence (P23977 whole entry, looked up): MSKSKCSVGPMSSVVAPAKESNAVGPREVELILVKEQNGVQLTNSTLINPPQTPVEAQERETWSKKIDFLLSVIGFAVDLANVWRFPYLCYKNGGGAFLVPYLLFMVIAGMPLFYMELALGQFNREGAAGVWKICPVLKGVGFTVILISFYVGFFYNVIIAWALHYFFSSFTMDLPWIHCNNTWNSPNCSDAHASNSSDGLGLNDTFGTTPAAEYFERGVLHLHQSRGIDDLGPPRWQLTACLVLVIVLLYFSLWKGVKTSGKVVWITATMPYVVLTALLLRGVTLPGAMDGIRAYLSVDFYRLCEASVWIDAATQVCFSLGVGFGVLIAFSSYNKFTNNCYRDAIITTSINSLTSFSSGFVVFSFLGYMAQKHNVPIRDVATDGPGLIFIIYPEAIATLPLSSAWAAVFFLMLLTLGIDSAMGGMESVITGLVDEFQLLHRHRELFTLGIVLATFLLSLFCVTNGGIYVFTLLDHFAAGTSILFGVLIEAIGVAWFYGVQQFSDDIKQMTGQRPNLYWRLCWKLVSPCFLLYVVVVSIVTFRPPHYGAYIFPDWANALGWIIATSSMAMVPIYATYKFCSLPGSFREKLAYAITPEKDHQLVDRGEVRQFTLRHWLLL
measure name: pKi
Schema: pKi number; meaning minus log10 of the concentration expressed in molar units.

Observed pKi on Sodium-dependent dopamine transporter (Rattus norvegicus) (UniProt P23977), entry C[C@]12N[C@H](Cc3ccccc31)c1ccccc12 [DIZOCILPINE] , equals 4.39
